The reported measurements were obtained from paper PMC8267177.

# protocol_notes: in vitro
# Type: cell-based
# test_context: human
Non-standard residues stand in square brackets, D forms with d. Residues, ends and D or L forms follow the SMILES beside them. *: point of attachment. RhodamineB = CCN(CC)c1ccc2c(-c3ccccc3C(=O)*)c3ccc(=[N+](CC)CC)cc-3oc2c1; Nphe = O=C(O)CNCc1ccccc1; Nlys = NCCCCNCC(=O)O
property_name: IC50 at 72 h (µM)
One number for each entry, in µM.

Value lookup for IC50 at 72 h; key = CCN(CC)c1ccc2c(-c3ccccc3C(=O)NCCCCN3CC(=O)N[C@@H](Cc4ccc(O)cc4)C(=O)N[C@@H](Cc4ccccc4)C(=O)N(Cc4ccccc4)CC3=O)c3ccc(=[N+](CC)CC)cc-3oc2c1 [18-Rhod, cyclo-(l-Phe-N4am(Rhod)-N1ph-l-Tyr)] (cyclo(F[Nphe][Nlys](RhodamineB)Y)) 33

---

# protocol_notes: in vitro
# Format: cell-based
# test_context: human
Non-standard residues stand in square brackets, D forms with d. Residues, ends and D or L forms follow the SMILES beside them. *: point of attachment. RhodamineB = CCN(CC)c1ccc2c(-c3ccccc3C(=O)*)c3ccc(=[N+](CC)CC)cc-3oc2c1; Gly(Nα-4-Cl-benzyl) = O=C(O)CNCc1ccc(Cl)cc1; Nphe = O=C(O)CNCc1ccccc1; NBuGly = CCCCNCC(=O)O; Nlys = NCCCCNCC(=O)O
Assign IC50 at 72 h to each entry below.

Below, 5 compounds whose answers are already recorded.
Can you share its IC50 at 72 h? I mean this compound: NCCCC[C@@H]1NC(=O)CN(Cc2ccccc2)C(=O)CN(Cc2ccccc2)C(=O)[C@H](Cc2c[nH]c3ccccc23)NC1=O [compound 19, cyclo-(l-Trp-N1ph-N1ph-l-Lys)] (cyclo(KW[Nphe][Nphe])) > 50 µM

I'd like to know its IC50 at 72 h. The compound in question is CCCCN1CC(=O)N[C@@H](Cc2ccccc2)C(=O)N[C@@H](Cc2ccccc2)C(=O)N(CCCCNC(=O)c2ccccc2-c2c3ccc(=[N+](CC)CC)cc-3oc3cc(N(CC)CC)ccc23)CC(=O)N(Cc2ccccc2)CC(=O)N(CCCC)CC1=O [24-Rhod] (cyclo(F[Nlys](RhodamineB)[Nphe][NBuGly][NBuGly]F)) 26 µM

Which IC50 at 72 h value belongs to CCCCN1CC(=O)N(Cc2ccccc2)CC(=O)N(CCCCN)CC(=O)N[C@@H](Cc2ccccc2)C(=O)N[C@@H](Cc2ccccc2)C(=O)N(CCCC)CC1=O [compound 24, cyclo-(l-Phe-N3m-N3m-N1ph-N4am-l-Phe)] (cyclo(FF[NBuGly][NBuGly][Nphe][Nlys])) ? > 50 µM

Look at this compound and give its reported IC50 at 72 h. NCCCCN1CC(=O)N(Cc2ccccc2)CC(=O)N[C@@H](Cc2ccc(O)cc2)C(=O)N[C@@H](Cc2ccccc2)C1=O [compound 18, cyclo-(l-Phe-N4am-N1ph-l-Tyr)] (cyclo(F[Nlys][Nphe]Y)) > 50 µM

Data request, read-out IC50 at 72 h, for NCCCCN1CC(=O)N[C@@H](Cc2ccccc2)C(=O)N[C@@H](Cc2ccccc2)C(=O)N(Cc2ccccc2)CC(=O)N(Cc2ccccc2)CC(=O)N(Cc2ccccc2)CC1=O [compound 22, cyclo-(l-Phe-N1ph-N1ph-N1ph-N4am-l-Phe)] (cyclo(FF[Nphe][Nphe][Nphe][Nlys])) > 50 µM

Give IC50 at 72 h for each of the items listed below.
1. CCCCN1CC(=O)N(Cc2ccccc2)CC(=O)N(CCCCN)CC(=O)N[C@@H](Cc2ccccc2)C1=O [compound 17, cyclo-(l-Phe-N3m-N1ph-N4am)] (cyclo(F[NBuGly][Nphe][Nlys]))
2. CCCCN1CC(=O)N[C@@H](CCCCNC(=O)c2ccccc2-c2c3ccc(=[N+](CC)CC)cc-3oc3cc(N(CC)CC)ccc23)C(=O)N[C@@H](Cc2ccc(O)cc2)C(=O)N(CCCC)CC1=O [21-Rhod, cyclo-(l-Tyr-N3m-N3m-l-Lys(Rhod))] (cyclo(K(RhodamineB)Y[NBuGly][NBuGly]))

1: > 50 µM; 2: 36 µM

Provide reported IC50 at 72 h for each item, in the same order as listed.
1. NCCCCN1CC(=O)N[C@@H](Cc2ccccc2)C(=O)N(Cc2ccccc2)CC(=O)N(Cc2ccccc2)CC1=O [compound 15, cyclo-(l-Phe-N1ph-N1ph-N4am)] (cyclo(F[Nphe][Nphe][Nlys]))
2. NCCCC[C@@H]1NC(=O)CN(Cc2ccc(Cl)cc2)C(=O)CN(Cc2ccc(Cl)cc2)C(=O)[C@H](Cc2c[nH]c3ccccc23)NC1=O [compound 20, cyclo-(l-Trp-N1ph^pCl-N1ph^pCl-l-Lys)] (cyclo([Gly(Nα-4-Cl-benzyl)][Gly(Nα-4-Cl-benzyl)]KW))

1: > 50 µM; 2: > 50 µM
